test system: SN12C renal; test: NCI tumour cell line growth inhibition, 48 h
MEASURED_PROPERTY: TGI (µM)
Response body: numeric value in µM, unit text excluded.

// TGI lookup, key: Cc1ccc(NCCNCC(O)CO)c2c(=O)c3ccccc3sc12 (stereo not given) 3.19

// TGI lookup, key: CC1OC2OC3C(OCC(O)C3O)OC(=O)[C@]34CCC(C)(C)CC3C3=CCC5[C@@]6(C)C[C@H](O)[C@H](OC7OC(CO)C(O)C(O)C7OC7OC(COC(=O)CC(C)(O)CC(=O)OC1C(OC1OC(CO)C(O)C(O)C1O)C2O)C(O)C(O)C7O)[C@@](C)(CO)C6CC[C@@]5(C)[C@]3(C)CC4 (stereo not given in full) 14.8

// TGI lookup, key: NCCn1c2c(c3ccccc3c1=O)C(=O)c1ccccc1-2 2.13

// TGI lookup, key: O=C1c2cccnc2C(=O)c2c1nc1ccccc1c2-c1ccc2c3c(nc4ccccc42)C(=O)c2cccnc2-c13 4.06

// TGI lookup, key: CN1CCN(CCCOc2ccc3ncnc(Nc4ccc(Oc5cccc(F)c5)c(Cl)c4)c3c2)CC1 2.74

// TGI lookup, key: Clc1sc(Cl)c2c1[C@H](Br)C[C@@H]2Cl 85.3

// TGI lookup, key: C(/C=C/N1CCCC1)=C\c1nc(N2CCCC2)c2ccccc2n1 29

// TGI lookup, key: NC1(C(=O)O)CSSC1 12.3

// TGI lookup, key: O=C(Nc1nc2ccc(F)cc2s1)c1cccnc1Nc1ccc(Cl)cc1Cl 13.7

// TGI lookup, key: COc1cc2c(c(OC)c1OC)-c1ccc(SC)c(=O)cc1[C@@H](NC(=O)c1ccc(F)cc1)CC2 46.8

// TGI lookup, key: N#CC1=C(N)Oc2c(sc3c(Br)cccc23)C1c1ccc(F)cc1 (stereo not given) 18.7

---

tested on: HCT-15 colon; experiment: NCI tumour cell line growth inhibition, 48 h
MEASURED_PROPERTY: TGI

// TGI lookup, key: COc1cc2c3cc1Oc1cc(ccc1O)C[C@@H]1c4c(cc(OC)c(O)c4Oc4ccc(cc4)C[C@@H]3[N+](C)(C)CC2)CC[N+]1(C)C > 100 µM

// TGI lookup, key: O/N=C/[C@H]1COC2(CCCCC2)O1 > 100 µM

// TGI lookup, key: COC12C=C/C(=C(/C(=O)OCc3csc(SC)n3)C(=O)CCCCCCCCC3(OC)C=C/C(=C(/C(=O)OCc4cnc(SC)s4)C(=O)CCCCCCCC1)O3)O2 (stereo not drawn) > 100 µM

// TGI lookup, key: COc1ccc(-c2nn3ncccc3c2-c2ccnc(Nc3cccc(C(F)(F)F)c3)n2)cc1 > 25 µM

// TGI lookup, key: C[N+]1(CCCCN2c3ccccc3Sc3cc(N=[N+]=[N-])ccc32)CCN(C(=O)CCNC(=O)Cc2ccc(C(=O)c3ccccc3)cc2)CC1 55.9 µM

// TGI lookup, key: CC(C)(C)C#CI1OC(=O)c2ccccc21 11.6 µM

// TGI lookup, key: C=C[C@@]1(C)CC(=O)[C@]2(O)[C@@]3(C)[C@@H](O)CCC(C)(C)[C@@H]3[C@H](O)[C@@H](OC(C)=O)[C@@]2(C)O1 > 100 µM

// TGI lookup, key: CC12CCC(=O)[C@@]1(C)CCCC2=O (stereo partly drawn) > 100 µM

---

system: M14 melanoma; assay: NCI tumour cell line growth inhibition, 48 h
Assign TGI to each entry below.
Response body: numeric value in µM, unit text excluded.

// TGI lookup, key: O=C(Nc1cccc(Cl)c1)c1cc(Cl)ccc1O 5.4

// TGI lookup, key: CC(C)NC(=O)OCc1c(COC(=O)NC(C)C)n(C)c2c1ccc1cc(Cl)c(Cl)cc12 29.2

---

system: OVCAR-3 ovarian; assay: NCI tumour cell line growth inhibition, 48 h
Assign TGI to each entry below.
Response body: numeric value in µM, unit text excluded.

// TGI lookup, key: O=C1C=CC(=O)c2c(O)c(N3CCN(c4ncccn4)CC3)c(Cl)c(O)c21 3.16

// TGI lookup, key: NC1(C(=O)O)CSSC1 59.3

---

system: HT29 colon; test: NCI tumour cell line growth inhibition, 48 h
MEASURED_PROPERTY: GI50

// GI50 lookup, key: NCCNc1nc2ccccc2c2c(=O)c3cc(F)cc(Cl)c3sc12 1560 nM

// GI50 lookup, key: NC(=O)c1c(NC(=O)c2cccc(C(F)(F)F)c2)sc2c1CCC(=O)C2 378 nM

// GI50 lookup, key: Cc1ccc(-c2cc(C(Cl)Cl)on2)cc1 26900 nM

// GI50 lookup, key: CCn1c(-c2nonc2N)nc2c(C#CC(C)(C)O)ncc(OC[C@@H]3CCCN3)c21 5150 nM

// GI50 lookup, key: Cc1cc(Nc2cc(N3CCN(C)CC3)nc(C#Cc3ccccc3)n2)n[nH]1 2020 nM

---

system: DU-145 prostate; test: NCI tumour cell line growth inhibition, 48 h; in the data active = GI50 below about 0.43 µM; inactive = the rest
Valid outcomes are listed here; reply with one: TRUE = active, FALSE = inactive

Identify the outcome logged in this assay for the compound shown: CC[C@H](C)[C@H](NC(=O)N[C@@H](C)c1ccccc1)C(=O)N(C)[C@H](C[C@@H](OC(C)=O)c1nc(C(=O)N[C@@H](Cc2ccccc2)C[C@H](C)C(=O)OC)cs1)C(C)C FALSE

Identify the outcome logged in this assay for the compound shown: CCCC(=O)Nc1cn(COC)c(C(=O)N2C[C@H]3C[C@@]34C2=CC(=O)c2[nH]cc(C)c24)n1 FALSE

Identify the outcome logged in this assay for the compound shown: CCCCCCCCCCCCCCCCCCNC(=O)[C@H]1CSC(c2ccc(F)c(OC)c2)N1 (stereo partly drawn) FALSE

Identify the outcome logged in this assay for the compound shown: COc1ccc(-c2nn(-c3cccc(Cl)c3)cc2/C=C2\C(=N)N(c3ccccc3)N=C2N)cc1 FALSE

Identify the outcome logged in this assay for the compound shown: O=C(CCl)Nc1ccc(C(=O)N/N=C/c2ccc(Cl)cc2)cc1 FALSE

Identify the outcome logged in this assay for the compound shown: COc1ccc(-c2conc2-c2ccccc2)cc1 TRUE

Identify the outcome logged in this assay for the compound shown: CCOC(=O)C(=Cc1c(-c2ccccc2)[nH]c2ccccc12)C(=O)OCC FALSE

Identify the outcome logged in this assay for the compound shown: COC12C=C/C(=C(/C(=O)OCc3csc(SC)n3)C(=O)CCCCCCCCC3(OC)C=C/C(=C(/C(=O)OCc4cnc(SC)s4)C(=O)CCCCCCCC1)O3)O2 (stereo not drawn) FALSE

Identify the outcome logged in this assay for the compound shown: Cc1ccc2c(C(C[N+](=O)[O-])c3ccco3)c(-c3ccccc3)[nH]c2c1 (stereo not drawn) FALSE

Identify the outcome logged in this assay for the compound shown: O=c1c2ccccc2c(=O)c2c1sc1c(=O)c3ccc(O)cc3c(=O)c12 TRUE

Identify the outcome logged in this assay for the compound shown: COc1ccc(-c2nn(-c3cccc(Cl)c3)cc2-c2cc(-c3cccs3)no2)cc1 FALSE

Identify the outcome logged in this assay for the compound shown: CC(C)(C)OC(=O)n1c(Cl)c(C(=O)N=C=S)c2ccccc21 FALSE

Identify the outcome logged in this assay for the compound shown: O=C(Nc1nc2ccc(F)cc2s1)c1cccnc1Nc1ccc(Cl)cc1Cl FALSE

Identify the outcome logged in this assay for the compound shown: COc1ccccc1-c1nccc(COc2ccccc2C[C@@H](Oc2ncnc3sc(-c4ccc(F)cc4)c(-c4ccc(OCCN5CCN(C)CC5)c(Cl)c4C)c23)C(=O)O)n1 FALSE

Identify the outcome logged in this assay for the compound shown: NC1(C(=O)O)CSSC1 FALSE

Identify the outcome logged in this assay for the compound shown: Cc1cc(S(N)(=O)=O)c(S/C(=N\NS(=O)(=O)c2ccccc2)c2ccc(Cl)c(Cl)c2)cc1Cl FALSE

Identify the outcome logged in this assay for the compound shown: CNc1ccc(N=Nc2cccc3ncccc23)cc1 FALSE

Identify the outcome logged in this assay for the compound shown: CCOc1cccc(/C=N/NC(=O)Cc2ccc(Nc3ccnc(C(F)(F)F)c3)cc2)c1O FALSE

---

test system: MOLT-4 leukemia; assay: NCI tumour cell line growth inhibition, 48 h
MEASURED_PROPERTY: TGI

// TGI lookup, key: O=C(/C=C/CC(O)(c1ccccc1)c1ccccc1)Nc1ccccc1Cl > 100 µM

// TGI lookup, key: CN1CCN(CCCOc2ccc3ncnc(Nc4ccc(Oc5cccc(F)c5)c(Cl)c4)c3c2)CC1 4.35 µM

// TGI lookup, key: O=C1OC(c2ccc(Cl)c3ccccc23)c2ccccc21 (stereo unspecified) > 100 µM

// TGI lookup, key: CCOC(=O)C(NC(=O)CC)(Nc1ccccc1F)C(F)(F)F (stereo unspecified) > 100 µM

// TGI lookup, key: C1=CC=C2NCCSCCNC3=CC=CC=CC3=NCCSCCN=C2C=C1 > 100 µM

// TGI lookup, key: C=C1c2ccccc2N(S(=O)(=O)c2ccc(C)cc2)C12CCCCC2 > 100 µM

// TGI lookup, key: Cc1cc(C(=O)Nc2cc(Nc3ncccc3-c3ncnc4nc[nH]c34)ccc2F)cc(C(C)(C)C#N)c1 > 100 µM

// TGI lookup, key: CCCCCc1cc(CCCC)sc1-c1ccco1 > 100 µM

// TGI lookup, key: N#CC1=C(N)NC(=S)C(C#N)C12Nc1ccccc1S2 (stereo unspecified) > 100 µM

// TGI lookup, key: COc1ccc(C2NC(=S)NC3=C2COc2ccc(F)cc23)cc1OC (stereo unspecified) > 100 µM

// TGI lookup, key: OC(CCN1CCN(CCOC(c2ccc(F)cc2)c2ccc(F)cc2)CC1)c1ccc(Br)cc1 (stereo unspecified) 7.73 µM

Where do the numbers come from? From PubChem BioAssay (NCI).
